Molecular target: human recombinant MC3R (CHO-K1/Gα15 stable cell line, GenScript) (human, UniProt P41968 1-323)
Sequence (P41968 whole entry): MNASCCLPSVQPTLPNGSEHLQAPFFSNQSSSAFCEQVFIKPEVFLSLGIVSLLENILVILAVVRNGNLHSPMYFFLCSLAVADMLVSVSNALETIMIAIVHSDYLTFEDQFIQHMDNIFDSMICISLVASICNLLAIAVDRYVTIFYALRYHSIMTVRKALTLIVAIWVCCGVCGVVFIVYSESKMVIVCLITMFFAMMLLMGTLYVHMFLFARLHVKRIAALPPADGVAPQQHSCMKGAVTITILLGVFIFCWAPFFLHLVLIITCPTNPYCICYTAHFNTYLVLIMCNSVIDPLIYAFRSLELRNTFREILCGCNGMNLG
Assay: cell-based or functional assay
Starred links: 1 amine or outer side, 2 acyl side, 3 side chain; linkers in the order of their positions; H or OH if unused. Positions of bridges follow the written chain, without caps; N, C: chain ends. Non-standard residues stand in square brackets, D forms with d. *: point of attachment. Phe(OCH3) = O-methyl-tyrosine, COc1ccc(C[C@H](N[*:1])C(=O)[*:2])cc1; Benzoyl(3,5-(OH)2) = O=C(c1cc(O)cc(O)c1)*; Lys(N3) = [N-]=[N+]=NCCCC[C@H](N)C(=O)O; mXylylene = c1cc(C[*:1])cc(C[*:2])c1; Nle = CCCC[C@H](N)C(=O)O; Pra = C#CC[C@H](N)C(=O)O
value type: MC3R IC50 (nM)

Below, 3 binders whose answers are already recorded.
Ac-SYSMEHFRWGKP-NH2 [KR-005]: 149
Ac-[Nle][Pra]H[dF]RW[Lys(N3)]K-NH2 (triazole 2-7; not fully specified; printed as Ac-Nle-[Pra-His-DPhe-Arg-Trp-Lys(N3)]-Lys-NH2) [KR-067]: 66.2
Ac-[Nle]CH[dF]RCW-NH2 (linker 2-6 via mXylylene) [KR-032]: 1330

I = {Benzoyl(3,5-(OH)2)}-[Nle][Lys(N3)]H[dF]RW[Pra]K-NH2 (triazole 2-7; not fully specified; printed as HyBA-Nle-[Lys(N3)-His-DPhe-Arg-Trp-Pra]-Lys-NH2) [KR-053]
II = Ac-[Nle][Lys(N3)][Phe(OCH3)][dF]RW[Pra]K-NH2 (triazole 2-7; not fully specified; printed as Ac-Nle-[Lys(N3)-Phe(OCH3)-DPhe-Arg-Trp-Pra]-Lys-NH2) [KR-061]
Incoming: Parameter check: reported MC3R IC50 is higher for which label, I or II ? Mark your answer with the label of the selected entry.
Outgoing: I
